Hey, just so you know, these numbers are from ChEMBL document CHEMBL1156656.

Assay: Inhibition of HIV1 RNase H by FRET assay
Parameters: species or system Human immunodeficiency virus 1
IC50 for assorted compounds
Reply numerically in µM, unit not repeated.

Worked examples follow.
{"compound": "O=C(OC[C@H]1O[C@@H](Oc2ccc(O)cc2)[C@H](OC(=O)c2cc(O)c(O)c(O)c2)[C@@H](O)[C@@H]1O)c1cc(O)c(O)c(O)c1", "IC50 (µM)": 5.05}
{"compound": "O=C(O[C@@H]1[C@@H](OC(=O)c2cc(O)c(O)c(O)c2)[C@H](Oc2ccc(O)cc2)O[C@@H]2COC(=O)c3cc(O)c(O)c(O)c3-c3c(cc(O)c(O)c3O)C(=O)O[C@@H]12)c1cc(O)c(O)c(O)c1 [HYEMALOSIDE C]", "IC50 (µM)": 1.19}
{"compound": "O=C(OC[C@H]1O[C@@H](Oc2ccc(O)cc2)[C@H](OC(=O)c2cc(O)c(O)c(O)c2)[C@@H](O)[C@@H]1OC(=O)c1cc(O)c(O)c(O)c1)c1cc(O)c(O)c(O)c1", "IC50 (µM)": 0.68}

Query compound follows.
Briefly, IC50 measured for `O=C(OC[C@H]1O[C@@H](OC(=O)c2cc(O)c(O)c(O)c2)[C@H](OC(=O)c2cc(O)c(O)c(O)c2)[C@@H](O)[C@@H]1O)c1cc(O)c(O)c(O)c1` : 10.2

* * *

IC50 for assorted compounds
Assay: Inhibition of HIV2 RNase H by FRET assay
Design: species or system Human immunodeficiency virus 2
Reply with a number, then the unit it belongs to.

Worked examples follow.
{"compound": "O=C(OC[C@H]1O[C@@H](Oc2ccc(O)cc2)[C@H](OC(=O)c2cc(O)c(O)c(O)c2)[C@@H](OC(=O)c2cc(O)c(O)c(O)c2)[C@@H]1O)c1cc(O)c(O)c(O)c1 [HYEMALOSIDE A]", "IC50": "580 nM"}
{"compound": "O=C(OC[C@H]1O[C@@H](Oc2c(-c3ccc(O)cc3)oc3cc(O)cc(O)c3c2=O)[C@H](O)[C@@H](O)[C@@H]1O)c1cc(O)c(O)c(O)c1", "IC50": "5190 nM"}

Briefly, IC50 measured for `O=C(OC[C@H]1O[C@@H](Oc2ccc(O)cc2)[C@H](OC(=O)c2cc(O)c(O)c(O)c2)[C@@H](O)[C@@H]1O)c1cc(O)c(O)c(O)c1` : 280 nM

* * *

Experiment: Inhibition of HIV2 RNase H by FRET assay
Design: species or system Human immunodeficiency virus 2
Just a reminder that ties go to NO: only IC50 strictly below 3 µM counts as YES.

{"molecule": "O=C(O[C@H]1[C@H](Oc2ccc(O)cc2)O[C@H](CO)[C@@H](O)[C@@H]1O)c1cc(O)c(O)c(O)c1", "assigned category": "NO"}
{"molecule": "O=C(O[C@H]1[C@H](O)[C@@H](O)[C@H](Oc2ccc(O)cc2)O[C@@H]1CO)c1cc(O)c(O)c(O)c1", "assigned category": "NO"}
{"molecule": "C[C@H]1O[C@H](Oc2c(-c3ccc(O)cc3)oc3cc(O)cc(O)c3c2=O)[C@@H](O)[C@@H](OC(=O)c2cc(O)c(O)c(O)c2)[C@H]1O", "assigned category": "NO"}

// query State whether 3 µM exceeds IC50 recorded for O=C(OC[C@H]1O[C@@H](Oc2ccc(O)cc2)[C@H](OC(=O)c2cc(O)c(O)c(O)c2)[C@@H](O)[C@@H]1O)c1ccc(O)cc1 [HYEMALOSIDE B] .
// result NO

// query State whether 3 µM exceeds IC50 recorded for O=C(O[C@@H]1[C@@H](OC(=O)c2cc(O)c(O)c(O)c2)[C@H](Oc2ccc(O)cc2)O[C@@H]2COC(=O)c3cc(O)c(O)c(O)c3-c3c(cc(O)c(O)c3O)C(=O)O[C@@H]12)c1cc(O)c(O)c(O)c1 [HYEMALOSIDE C] .
// result YES

// query State whether 3 µM exceeds IC50 recorded for `O=C(OC[C@H]1O[C@@H](OC(=O)c2cc(O)c(O)c(O)c2)[C@H](OC(=O)c2cc(O)c(O)c(O)c2)[C@@H](O)[C@@H]1O)c1cc(O)c(O)c(O)c1` .
// result YES

// query State whether 3 µM exceeds IC50 recorded for `C[C@H]1O[C@H](Oc2c(-c3ccc(O)cc3)oc3cc(O)cc(O)c3c2=O)[C@@H](OC(=O)c2cc(O)c(O)c(O)c2)[C@@H](O)[C@H]1O` .
// result NO

// query State whether 3 µM exceeds IC50 recorded for C[C@@H]1O[C@@H](Oc2c(-c3ccc(O)c(O)c3)oc3cc(O)cc(O)c3c2=O)[C@H](O)[C@H](O)[C@H]1O [QUERCITRIN] .
// result NO

// query State whether 3 µM exceeds IC50 recorded for `O=C(OC[C@H]1O[C@@H](Oc2ccc(O)cc2)[C@H](OC(=O)c2cc(O)c(O)c(O)c2)[C@@H](O)[C@@H]1OC(=O)c1cc(O)c(O)c(O)c1)c1cc(O)c(O)c(O)c1` .
// result YES
